All values here come from PubChem BioAssay (NCATS).

Assay: qHTS assay for measurement of the activity of small molecule inhibitors on Zika virus induced Caspase-3 activity in human astrocytoma cells (AID 1224859)
Settings: SNB-19 ZIKV-induced caspase-3/7, luminescence, 6 h; series mostly up to 45.7 µM
Calls of active or inactive are those of the source. Calls follow the shape of the dose curve; as a rule, active = well fitted inhibition curve with a large enough effect; inconclusive = small, poorly fitted or top-dose-only effect; inactive = no such curve, though single readings can be large or run the other way.
Classes used: Y = active, N = inactive

{"molecule": "C=CC(C)=C[C@@]1(C)SC(=O)C(C)=C1O", "category label": "N"}
{"molecule": "C#CCN1C(C)=C(C(=O)OC)C(c2cccc([N+](=O)[O-])c2)C(C(=O)OCC)=C1C (stereo not drawn)", "category label": "N"}
{"molecule": "CC(=O)/C=C1\\C(=O)N(C)c2ccccc21", "category label": "N"}
{"molecule": "O=C(/C=C/c1ccc(O)cc1)c1ccc(O)cc1O", "category label": "Y"}
{"molecule": "Cc1ccc(S(=O)(=O)/C=C/C#N)cc1", "category label": "N"}
{"molecule": "O=C(O)CNC(=O)C(CS)Cc1ccccc1 (stereo not drawn)", "category label": "N"}
{"molecule": "N#C/C(=C\\c1ccc(O)c(O)c1)C(=O)c1ccc(O)c(O)c1", "category label": "N"}
{"molecule": "CCc1c(C(=O)NCCc2ccc(N3CCCCC3)cc2)[nH]c2ccc(Cl)cc12", "category label": "N"}
{"molecule": "C[C@@H](NC(=O)/C(C#N)=C/c1ccc(O)c(O)c1)c1ccccc1", "category label": "N"}
{"molecule": "CCCCCCCCCCCC(=O)[O][Sn]([CH2]CCC)([CH2]CCC)[O]C(=O)CCCCCCCCCCC", "category label": "N"}
{"molecule": "O=Nc1ccc2oc(=O)ccc2c1", "category label": "N"}
{"molecule": "COc1ccc2c(c1)CCC1C2CC[C@@]2(C)C1CC[C@@H]2NCCCCCCN1C(=O)CCC1=O (stereo partly drawn)", "category label": "N"}
{"molecule": "CN1CCc2cccc3c2C1Cc1ccc(O)c(O)c1-3 (stereo not drawn)", "category label": "N"}
{"molecule": "CO[C@@]1(NC(=O)Cc2cccs2)C(=O)N2C(C(=O)O)=C(COC(N)=O)CS[C@@H]21", "category label": "N"}
{"molecule": "CCN1/C(=C/C(C)=O)Sc2ccc(OC)cc21", "category label": "N"}
{"molecule": "C[N+](C)(C)CCOP(=O)(O)OP(=O)([O-])OC[C@H]1O[C@@H](n2ccc(N)nc2=O)[C@H](O)[C@@H]1O", "category label": "N"}
{"molecule": "CCOC(=O)N1CCN(/[N+]([O-])=N/Oc2ccc([N+](=O)[O-])cc2[N+](=O)[O-])CC1", "category label": "N"}
{"molecule": "CCCN(CC1CC1)c1nc(C)nc(Nc2c(Cl)cc(Cl)cc2Cl)c1Cl", "category label": "N"}
{"molecule": "Clc1ccc(N2CCN(Cc3cc4ccccn4n3)CC2)cc1", "category label": "N"}
{"molecule": "COc1ccnc2c1CCCCC2S(=O)c1nc2ccccc2[nH]1 (stereo not drawn)", "category label": "N"}
{"molecule": "NCCO", "category label": "N"}
{"molecule": "CCOC(=O)c1ccccc1O", "category label": "N"}
{"molecule": "CCOc1ccc2nc(S(N)(=O)=O)sc2c1", "category label": "N"}
